species: Homo sapiens; test: Selectivity index, ratio of Ki for human A3 adenosine receptor to Ki for human A2A adenosine receptor
Rule: Ratio Ki under 3 gives Not fulfilled, otherwise Fulfilled.

- sample.smiles: "Nc1nc(NCc2ccccc2)nc2nc(-c3ccco3)nn12"
  group: "Fulfilled"
- sample.smiles: "Nc1nc(NC2CCCCC2)nc2nc(-c3ccco3)nn12"
  group: "Fulfilled"
- sample.smiles: "O=C(Nc1nc(NC2CCCCC2)nc2nc(-c3ccco3)nn12)c1ccccc1"
  group: "Fulfilled"
- sample.smiles: "c1ccc(CNc2nc(Oc3ccccc3)nc3nc(-c4ccco4)nn23)cc1"
  group: "Not fulfilled"
- sample.smiles: "CC(C)Nc1nc(NC2CCCCC2)n2nc(-c3ccco3)nc2n1"
  group: "Not fulfilled"
- sample.smiles: "O=C(Nc1ccccc1)Nc1nc(NC2CCCCC2)nc2nc(-c3ccco3)nn12"
  group: "Fulfilled"
- sample.smiles: "CNc1nc(NC(=O)c2ccccc2)n2nc(-c3ccco3)nc2n1"
  group: "Fulfilled"
- sample.smiles: "O=C(Nc1nc(NCc2ccccc2)nc2nc(-c3ccco3)nn12)c1ccccc1"
  group: "Not fulfilled"
- sample.smiles: "CC(C)Nc1nc(N)n2nc(-c3ccco3)nc2n1"
  group: "Fulfilled"
- sample.smiles: "CNc1nc(NC2CCCCC2)n2nc(-c3ccco3)nc2n1"
  group: "Fulfilled"
- sample.smiles: "c1coc(-c2nc3nc(NC4CCCCC4)nc(NC4CCCCC4)n3n2)c1"
  group: "Not fulfilled"

###

organism: Homo sapiens; test: Selectivity index, ratio of Ki for human A1 adenosine receptor to Ki for human A2A adenosine receptor
Reported Ratio Ki is given for each of the following molecules.

- sample.smiles: "Fc1ccc(CNc2nc(NCc3ccccc3)nc3nc(-c4ccco4)nn23)cc1"
  Ratio Ki: 68.3
- sample.smiles: "c1coc(-c2nc3nc(NC4CCCCC4)nc(NC4CCCCC4)n3n2)c1"
  Ratio Ki: 1.73
- sample.smiles: "c1ccc(CNc2nc(NCc3ccccc3)n3nc(-c4ccco4)nc3n2)cc1"
  Ratio Ki: 38.4
- sample.smiles: "Fc1ccc(CNc2nc(NCc3ccc(F)cc3)n3nc(-c4ccco4)nc3n2)cc1"
  Ratio Ki: "> 2290"
- sample.smiles: "O=C(Nc1ccccc1)Nc1nc(NCc2ccccc2)nc2nc(-c3ccco3)nn12"
  Ratio Ki: 216
- sample.smiles: "O=C(Cc1ccccc1)Nc1nc(NCc2ccccc2)nc2nc(-c3ccco3)nn12"
  Ratio Ki: 125
- sample.smiles: "CC(C)Nc1nc(NC2CCCCC2)n2nc(-c3ccco3)nc2n1"
  Ratio Ki: 2.02
- sample.smiles: "CNc1nc(NC2CCCCC2)n2nc(-c3ccco3)nc2n1"
  Ratio Ki: 2.52
- sample.smiles: "CC(C)Nc1nc(N)n2nc(-c3ccco3)nc2n1"
  Ratio Ki: 66.5
- sample.smiles: "CNc1nc(NCc2ccc(F)cc2)n2nc(-c3ccco3)nc2n1"
  Ratio Ki: 13.1
- sample.smiles: "Nc1nc(NCc2ccccc2)nc2nc(-c3ccco3)nn12"
  Ratio Ki: 85.2
- sample.smiles: "c1ccc(CNc2nc(Oc3ccccc3)nc3nc(-c4ccco4)nn23)cc1"
  Ratio Ki: "> 178"
- sample.smiles: "CC(C)Nc1nc(NC(=O)Nc2ccccc2)n2nc(-c3ccco3)nc2n1"
  Ratio Ki: 13.6
- sample.smiles: "O=C(Nc1nc(NCc2ccccc2)nc2nc(-c3ccco3)nn12)c1ccccc1"
  Ratio Ki: 15.2
- sample.smiles: "c1ccc(CNc2nc(NC3CCCCC3)n3nc(-c4ccco4)nc3n2)cc1"
  Ratio Ki: 4.2
- sample.smiles: "CC(C)Nc1nc(NC(=O)c2ccccc2)n2nc(-c3ccco3)nc2n1"
  Ratio Ki: 11.3
- sample.smiles: "CC(C)Nc1nc(NCc2ccccc2)n2nc(-c3ccco3)nc2n1"
  Ratio Ki: "> 253"
- sample.smiles: "CNc1nc(NC(=O)Cc2ccccc2)n2nc(-c3ccco3)nc2n1"
  Ratio Ki: 29.9
- sample.smiles: "Nc1nc(NC2CCCCC2)nc2nc(-c3ccco3)nn12"
  Ratio Ki: 38.8

###

Entries and their IC50 values follow.
biological target: Adenosine receptor A2b (Homo sapiens); assay: Antagonist activity at human A2B adenosine receptor expressed in CHO cell membranes assessed as inhibition of NECA stimulated adenylyl cyclase activity
Sequence (P29275 whole entry): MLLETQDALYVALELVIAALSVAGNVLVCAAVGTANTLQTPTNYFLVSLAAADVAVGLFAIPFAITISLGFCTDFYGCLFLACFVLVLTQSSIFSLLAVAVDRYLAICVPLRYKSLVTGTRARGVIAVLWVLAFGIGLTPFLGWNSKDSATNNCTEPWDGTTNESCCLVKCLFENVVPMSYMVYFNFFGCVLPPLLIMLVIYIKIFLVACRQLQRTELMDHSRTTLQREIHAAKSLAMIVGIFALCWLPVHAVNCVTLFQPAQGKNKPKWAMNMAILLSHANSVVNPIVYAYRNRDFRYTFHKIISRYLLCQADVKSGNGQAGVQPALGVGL

- sample.smiles: "CC(C)Nc1nc(N)n2nc(-c3ccco3)nc2n1"
  subject.of.test: "Adenosine receptor A2b (Homo sapiens)"
  IC50: "> 30 µM"
- sample.smiles: "O=C(Nc1nc(NCc2ccccc2)nc2nc(-c3ccco3)nn12)c1ccccc1"
  subject.of.test: "Adenosine receptor A2b (Homo sapiens)"
  IC50: "> 30 µM"
- sample.smiles: "Nc1nc(NCc2ccccc2)nc2nc(-c3ccco3)nn12"
  subject.of.test: "Adenosine receptor A2b (Homo sapiens)"
  IC50: "2.21 µM"
- sample.smiles: "c1ccc(CNc2nc(NC3CCCCC3)n3nc(-c4ccco4)nc3n2)cc1"
  subject.of.test: "Adenosine receptor A2b (Homo sapiens)"
  IC50: "> 30 µM"
- sample.smiles: "CNc1nc(NC2CCCCC2)n2nc(-c3ccco3)nc2n1"
  subject.of.test: "Adenosine receptor A2b (Homo sapiens)"
  IC50: "> 30 µM"
- sample.smiles: "c1ccc(CNc2nc(NCc3ccccc3)n3nc(-c4ccco4)nc3n2)cc1"
  subject.of.test: "Adenosine receptor A2b (Homo sapiens)"
  IC50: "11.8 µM"
- sample.smiles: "CC(C)Nc1nc(NC(=O)Cc2ccccc2)n2nc(-c3ccco3)nc2n1"
  subject.of.test: "Adenosine receptor A2b (Homo sapiens)"
  IC50: "> 30 µM"
- sample.smiles: "CNc1nc(NCc2ccc(F)cc2)n2nc(-c3ccco3)nc2n1"
  subject.of.test: "Adenosine receptor A2b (Homo sapiens)"
  IC50: "> 30 µM"
- sample.smiles: "Fc1ccc(CNc2nc(NCc3ccccc3)nc3nc(-c4ccco4)nn23)cc1"
  subject.of.test: "Adenosine receptor A2b (Homo sapiens)"
  IC50: "> 30 µM"
- sample.smiles: "O=C(Cc1ccccc1)Nc1nc(NC2CCCCC2)nc2nc(-c3ccco3)nn12"
  subject.of.test: "Adenosine receptor A2b (Homo sapiens)"
  IC50: "> 30 µM"
- sample.smiles: "CNc1nc(N)n2nc(-c3ccco3)nc2n1"
  subject.of.test: "Adenosine receptor A2b (Homo sapiens)"
  IC50: "> 30 µM"
- sample.smiles: "O=C(Nc1ccccc1)Nc1nc(NC2CCCCC2)nc2nc(-c3ccco3)nn12"
  subject.of.test: "Adenosine receptor A2b (Homo sapiens)"
  IC50: "> 30 µM"
- sample.smiles: "O=C(Cc1ccccc1)Nc1nc(NCc2ccccc2)nc2nc(-c3ccco3)nn12"
  subject.of.test: "Adenosine receptor A2b (Homo sapiens)"
  IC50: "7.62 µM"
- sample.smiles: "Fc1ccc(CNc2nc(NC3CCCCC3)nc3nc(-c4ccco4)nn23)cc1"
  subject.of.test: "Adenosine receptor A2b (Homo sapiens)"
  IC50: "> 30 µM"
- sample.smiles: "O=C(Nc1nc(NC2CCCCC2)nc2nc(-c3ccco3)nn12)c1ccccc1"
  subject.of.test: "Adenosine receptor A2b (Homo sapiens)"
  IC50: "> 30 µM"
- sample.smiles: "CNc1nc(NC(=O)Cc2ccccc2)n2nc(-c3ccco3)nc2n1"
  subject.of.test: "Adenosine receptor A2b (Homo sapiens)"
  IC50: "> 30 µM"
- sample.smiles: "Fc1ccc(CNc2nc(Oc3ccccc3)nc3nc(-c4ccco4)nn23)cc1"
  subject.of.test: "Adenosine receptor A2b (Homo sapiens)"
  IC50: "> 30 µM"
- sample.smiles: "CNc1nc(NC(=O)c2ccccc2)n2nc(-c3ccco3)nc2n1"
  subject.of.test: "Adenosine receptor A2b (Homo sapiens)"
  IC50: "> 30 µM"
- sample.smiles: "O=C(Nc1ccccc1)Nc1nc(NCc2ccccc2)nc2nc(-c3ccco3)nn12"
  subject.of.test: "Adenosine receptor A2b (Homo sapiens)"
  IC50: "4.36 µM"
- sample.smiles: "CC(C)Nc1nc(NCc2ccccc2)n2nc(-c3ccco3)nc2n1"
  subject.of.test: "Adenosine receptor A2b (Homo sapiens)"
  IC50: "> 30 µM"
- sample.smiles: "c1ccc(CNc2nc(Oc3ccccc3)nc3nc(-c4ccco4)nn23)cc1"
  subject.of.test: "Adenosine receptor A2b (Homo sapiens)"
  IC50: "> 30 µM"
- sample.smiles: "CNc1nc(NC(=O)Nc2ccccc2)n2nc(-c3ccco3)nc2n1"
  subject.of.test: "Adenosine receptor A2b (Homo sapiens)"
  IC50: "> 30 µM"

###

target: Adenosine receptor A1 (Homo sapiens); assay: Displacement of [3H]CCPA from human A1 adenosine receptor expressed in CHO cell membranes; details: read-out: Ki
Sequence (P30542 whole entry): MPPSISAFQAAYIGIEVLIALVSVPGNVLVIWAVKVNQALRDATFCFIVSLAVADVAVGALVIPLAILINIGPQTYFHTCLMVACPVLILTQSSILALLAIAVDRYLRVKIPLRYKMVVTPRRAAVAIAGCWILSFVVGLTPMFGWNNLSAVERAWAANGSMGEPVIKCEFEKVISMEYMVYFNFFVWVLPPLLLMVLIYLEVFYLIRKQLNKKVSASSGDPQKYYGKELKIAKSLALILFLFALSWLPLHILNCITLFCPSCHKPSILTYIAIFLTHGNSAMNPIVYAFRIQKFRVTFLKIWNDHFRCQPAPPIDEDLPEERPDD
pKi: −log10 of the molar value.

- sample.smiles: "Fc1ccc(CNc2nc(NCc3ccccc3)nc3nc(-c4ccco4)nn23)cc1"
  reading.qualifier: "="
  pKi: 5.83
- sample.smiles: "CNc1nc(NC(=O)Nc2ccccc2)n2nc(-c3ccco3)nc2n1"
  reading.qualifier: "="
  pKi: 5.41
- sample.smiles: "CNc1nc(N)n2nc(-c3ccco3)nc2n1"
  reading.qualifier: "="
  pKi: 5.59
- sample.smiles: "c1ccc(CNc2nc(Oc3ccccc3)nc3nc(-c4ccco4)nn23)cc1"
  reading.qualifier: "<"
  pKi: 4.00
- sample.smiles: "c1ccc(Oc2nc(NC3CCCCC3)n3nc(-c4ccco4)nc3n2)cc1"
  reading.qualifier: "="
  pKi: 6.12
- sample.smiles: "CNc1nc(NC(=O)c2ccccc2)n2nc(-c3ccco3)nc2n1"
  reading.qualifier: "="
  pKi: 4.98

Source: ChEMBL document CHEMBL3751698
